- Test target: EGFR (Homo sapiens, UniProt P00533)
- Sequence (P00533 25-1210): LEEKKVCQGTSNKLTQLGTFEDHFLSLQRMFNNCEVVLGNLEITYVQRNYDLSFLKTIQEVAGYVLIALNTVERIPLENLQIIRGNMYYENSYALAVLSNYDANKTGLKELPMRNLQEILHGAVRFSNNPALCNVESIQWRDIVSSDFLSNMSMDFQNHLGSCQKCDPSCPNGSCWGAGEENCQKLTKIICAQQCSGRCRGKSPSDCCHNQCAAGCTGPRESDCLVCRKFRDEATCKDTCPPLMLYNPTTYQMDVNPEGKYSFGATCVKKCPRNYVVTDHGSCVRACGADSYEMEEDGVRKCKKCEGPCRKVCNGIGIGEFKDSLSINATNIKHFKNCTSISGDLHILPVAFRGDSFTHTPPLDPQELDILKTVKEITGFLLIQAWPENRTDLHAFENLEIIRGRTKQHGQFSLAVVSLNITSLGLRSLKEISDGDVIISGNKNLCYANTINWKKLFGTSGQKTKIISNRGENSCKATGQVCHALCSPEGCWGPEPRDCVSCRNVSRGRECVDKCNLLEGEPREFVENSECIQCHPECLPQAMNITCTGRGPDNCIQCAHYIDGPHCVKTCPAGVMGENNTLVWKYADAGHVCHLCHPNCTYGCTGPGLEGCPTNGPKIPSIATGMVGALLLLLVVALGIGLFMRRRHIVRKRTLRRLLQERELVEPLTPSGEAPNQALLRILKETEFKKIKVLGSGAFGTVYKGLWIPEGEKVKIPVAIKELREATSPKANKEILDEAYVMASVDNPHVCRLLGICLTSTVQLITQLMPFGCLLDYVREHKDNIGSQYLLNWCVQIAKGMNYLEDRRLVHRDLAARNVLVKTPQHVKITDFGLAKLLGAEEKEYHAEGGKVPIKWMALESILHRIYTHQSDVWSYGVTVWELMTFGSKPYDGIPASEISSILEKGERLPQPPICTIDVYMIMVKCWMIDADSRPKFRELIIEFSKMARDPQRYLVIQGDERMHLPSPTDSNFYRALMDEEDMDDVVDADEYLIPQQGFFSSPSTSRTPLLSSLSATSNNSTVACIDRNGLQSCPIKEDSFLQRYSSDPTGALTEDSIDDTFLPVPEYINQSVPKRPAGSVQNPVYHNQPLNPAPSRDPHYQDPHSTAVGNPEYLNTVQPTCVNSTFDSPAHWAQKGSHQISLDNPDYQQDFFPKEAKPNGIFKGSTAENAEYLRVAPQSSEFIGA
Catalogue of molecules with associated IC50
The reply should contain only the number, in nM.

Sample answers from the record:
{"columns": ["Molecule", "Test target", "IC50 / nM"],
 "data": [
  ["COc1ccc2cc([C@H](C)c3nnc(SCC(=O)Nc4cccc(Cl)c4)o3)ccc2c1 [Compound 21]", "EGFR (Homo sapiens, UniProt P00533)", 820],
  ["COc1ccc2cc([C@H](C)c3nnc(SCc4cn(-c5cccc(Br)c5)nn4)o3)ccc2c1 [Compound 13]", "EGFR (Homo sapiens, UniProt P00533)", 3420]
]}

Now for the molecule whose IC50 we want.
Prompt: Which value of IC50 has been reported for COc1ccc2cc([C@H](C)c3nnc(SCc4cn(-c5ccccc5O)nn4)o3)ccc2c1 [Compound 15] in the records?
Completion: 410
